Reference source for all entries: the supplement of paper PMC7669877

relative CLso titer listing for selected molecules.
# System: Candidatus Liberibacter solanacearum in potato hairy roots
# ASSAY PROCEDURE: relative CLso titer (% of untreated control); higher = less inhibition of bacterial titer
# RUN CONDITIONS: 10 µM; 72 h

MOLECULE: O=C(O)CN(CCN(CC(=O)O)CC(=O)O)CC(=O)O
RESULT UNITS: %
relative CLso titer: 228
--
MOLECULE: Cc1cn([C@H]2C[C@H](N=[N+]=[N-])[C@@H](CO)O2)c(=O)[nH]c1=O
RESULT UNITS: %
relative CLso titer: 52.6
--
MOLECULE: Cc1onc(-c2c(Cl)cccc2Cl)c1C(=O)N[C@@H]1C(=O)N2[C@@H]1SC(C)(C)[C@@H]2C(=O)O
RESULT UNITS: %
relative CLso titer: 145
--
MOLECULE: CCCCOc1ccc(OCCCN2CCOCC2)cc1
RESULT UNITS: %
relative CLso titer: 106
--
MOLECULE: CCN1CCCC(OC(=O)C(c2ccccc2)c2ccccc2)C1 (stereo not given)
RESULT UNITS: %
relative CLso titer: 188
